// data source = ChEMBL document CHEMBL4513216

INHIBITION listing for selected compounds.
# Test system: Plasmodium berghei
# experimentDescription: Screen against P. berghei liver stage (PbLuc), transformed with Luciferase, at 10uM
# Format: functional, HepG2
# runConditions: tested at 10 uM
Out of some 69,000 compounds screened, about 8,600 (12%) showed an effect of 50% or more. The full list was thinned out, with strong results kept by preference.
The answer is to be given in %; state only the numeric part.

// below: answered compounds
In [3]: df
Out[3]:
                                   compound  testresult
0    CSC1=Nc2c(cnn2-c2ccc(Cl)cc2)C2=NCCCN12        64.8
1  Cn1ccnc1CN1C[C@H](N2CCOCC2)[C@@H]2OCCC[C@@H]21        37.8
2    CCc1ccc(C(=O)N2CCC(Nc3ccc(C)nn3)CC2)o1        33.8
3  CCn1nc(C)c(C(=O)N2C[C@@H](CN(C)CCOC)[C@@H](CO)C2)c1C          20
4     Cc1ccc(NC2CCN(C(=O)c3ccc(C)o3)CC2)nn1       51.65

The record that follows has no INHIBITION shown yet.
What does the record list as INHIBITION for CC(C(=O)NC1CC1)N1CCN(Cc2ccn(C)c(=O)c2)CC1 (stereo not drawn) ?
7.42

====

# Test system: Plasmodium berghei
# experimentDescription: Screen against P. berghei liver stage (PbLuc), transformed with Luciferase, at 10uM
# Format: functional, HepG2
# runConditions: tested at 10 uM
Screen size: about 69,000 compounds; about 8,600 (12%) showed an effect of 50% or more. The list comes from a sample in which strong results are over-represented; it also holds close analogues and randomly drawn compounds.
assayReadout: INHIBITION (%)
The answer is to be given in %; state only the numeric part.

// below: answered compounds
>>> print(df.to_string())
                                   compound  assayreadout  testresult
0         CN(Cc1ccsc1)C(=O)Nc1ccc(=O)n(C)c1    INHIBITION        47.4
1   CC(C)c1ncc2c(n1)CN(CCCc1nc3ccccc3o1)CC2    INHIBITION        40.9
2  O=C(CCCSc1ccc(NC(=O)C2CC2)nn1)NCC1CCCO1 (stereo unspecified)    INHIBITION        34.6
3  CCOc1ccc(CN(C)C(=O)NC(C)c2nncn2C)cc1 (stereo unspecified)    INHIBITION       -6.75
4              Cn1cc(NC(=O)NCc2ccsc2)ccc1=O    INHIBITION        16.1

The record that follows has no INHIBITION shown yet.
What does the record list as INHIBITION for "Cn1cc(NC(=O)CCc2ccsc2)ccc1=O" ?
59.3

====

# Test system: Plasmodium berghei
# experimentDescription: Screen against P. berghei liver stage (PbLuc), transformed with Luciferase, at 10uM
# Type: functional, HepG2
# runConditions: tested at 10 uM
The whole screen tested about 69,000 compounds, of which about 8,600 (12%) showed an effect of 50% or more. What follows is part of a selection rich in strong results, with near analogues and random picks from the rest.
assayReadout: INHIBITION (%)
The answer is to be given in %; state only the numeric part.

In [3]: df
Out[3]:
                                   compound       targetofassay  testresult
0  CN(C)C(=O)C1CCC2(CCN(Cc3cnn(C)c3)CC2)C1 (stereo not given)  Plasmodium berghei        55.5
1    O=C(c1cc(F)ccc1Br)N1CCN(C(=O)C2CC2)CC1  Plasmodium berghei        12.9
2          Cc1ccc(N2CCC(CCN3CCCC3=O)CC2)nn1  Plasmodium berghei        27.7
3  CCn1cc(C(=O)N2CCCC3(CCC(=O)N(CCC(C)C)C3)C2)cn1 (stereo not given)  Plasmodium berghei       -47.8
4  CCCc1noc2ncc(C(=O)N3CCCC3c3cnn(C)c3)cc12 (stereo not given)  Plasmodium berghei       -29.1

What does the record list as INHIBITION for CC(=O)N1N=C(c2ccccc2)OC1C(=O)NCCN(C(C)C)C(C)C (stereo not given) ?
30.3

What does the record list as INHIBITION for "CCOc1ccc(Oc2cc(N)ccn2)cc1" ?
-55.5
